Ref: ChEMBL document CHEMBL1155545

Acetylcholinesterase (Electrophorus electricus, UniProt O42275): reported log10 IC50 for various molecules.
Sequence (O42275 whole entry): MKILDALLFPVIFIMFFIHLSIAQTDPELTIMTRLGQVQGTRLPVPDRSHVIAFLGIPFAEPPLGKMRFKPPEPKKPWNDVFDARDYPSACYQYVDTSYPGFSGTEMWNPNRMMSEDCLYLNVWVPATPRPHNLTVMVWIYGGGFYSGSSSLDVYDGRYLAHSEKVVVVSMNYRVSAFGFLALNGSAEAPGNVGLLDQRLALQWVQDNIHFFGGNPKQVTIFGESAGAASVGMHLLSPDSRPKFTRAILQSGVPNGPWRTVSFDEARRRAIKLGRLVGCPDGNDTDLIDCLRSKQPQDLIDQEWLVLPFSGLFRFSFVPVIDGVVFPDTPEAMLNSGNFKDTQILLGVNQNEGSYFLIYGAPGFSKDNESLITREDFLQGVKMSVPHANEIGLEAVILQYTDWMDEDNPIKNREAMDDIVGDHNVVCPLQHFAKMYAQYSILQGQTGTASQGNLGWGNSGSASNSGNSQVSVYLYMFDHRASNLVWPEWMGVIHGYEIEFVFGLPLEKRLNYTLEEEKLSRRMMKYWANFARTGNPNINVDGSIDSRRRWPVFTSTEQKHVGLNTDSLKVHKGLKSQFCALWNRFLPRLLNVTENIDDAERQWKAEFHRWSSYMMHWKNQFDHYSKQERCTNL
Field: value | Transform: log10 | Quantity: IC50 | Unit: µM

**Q:** Look up log10 IC50 with Acetylcholinesterase (Electrophorus electricus, UniProt O42275) for this molecule: `c1ccc(CNc2ccnc(N3CCCC3)n2)cc1`
**A:** 0.99

**Q:** Look up log10 IC50 with Acetylcholinesterase (Electrophorus electricus, UniProt O42275) for this molecule: `c1ccc(CCNc2ccnc(N3CCOCC3)n2)cc1`
**A:** 0.68

**Q:** Look up log10 IC50 with Acetylcholinesterase (Electrophorus electricus, UniProt O42275) for this molecule: `CN1CCN(c2nccc(NCc3cccc4ccccc34)n2)CC1`
**A:** 1.25

**Q:** Look up log10 IC50 with Acetylcholinesterase (Electrophorus electricus, UniProt O42275) for this molecule: `CC1CCN(c2nccc(NCCc3ccccc3)n2)CC1`
**A:** 0.90

**Q:** Look up log10 IC50 with Acetylcholinesterase (Electrophorus electricus, UniProt O42275) for this molecule: `c1ccc(CNc2ccnc(N3CCSCC3)n2)cc1`
**A:** -0.48

**Q:** Look up log10 IC50 with Acetylcholinesterase (Electrophorus electricus, UniProt O42275) for this molecule: `c1ccc(CNc2ccnc(N3CCOCC3)n2)cc1`
**A:** -0.30

**Q:** Look up log10 IC50 with Acetylcholinesterase (Electrophorus electricus, UniProt O42275) for this molecule: `c1ccc(CCNc2ccnc(N3CCSCC3)n2)cc1`
**A:** 1.40

**Q:** Look up log10 IC50 with Acetylcholinesterase (Electrophorus electricus, UniProt O42275) for this molecule: `c1ccc2c(NCCCCCCCNc3c4c(nc5ccccc35)CCCC4)c3c(nc2c1)CCCC3`
**A:** -2.74

---

# MEASUREMENT_TARGET: UniProt P81908
# Sequence (P81908 whole entry): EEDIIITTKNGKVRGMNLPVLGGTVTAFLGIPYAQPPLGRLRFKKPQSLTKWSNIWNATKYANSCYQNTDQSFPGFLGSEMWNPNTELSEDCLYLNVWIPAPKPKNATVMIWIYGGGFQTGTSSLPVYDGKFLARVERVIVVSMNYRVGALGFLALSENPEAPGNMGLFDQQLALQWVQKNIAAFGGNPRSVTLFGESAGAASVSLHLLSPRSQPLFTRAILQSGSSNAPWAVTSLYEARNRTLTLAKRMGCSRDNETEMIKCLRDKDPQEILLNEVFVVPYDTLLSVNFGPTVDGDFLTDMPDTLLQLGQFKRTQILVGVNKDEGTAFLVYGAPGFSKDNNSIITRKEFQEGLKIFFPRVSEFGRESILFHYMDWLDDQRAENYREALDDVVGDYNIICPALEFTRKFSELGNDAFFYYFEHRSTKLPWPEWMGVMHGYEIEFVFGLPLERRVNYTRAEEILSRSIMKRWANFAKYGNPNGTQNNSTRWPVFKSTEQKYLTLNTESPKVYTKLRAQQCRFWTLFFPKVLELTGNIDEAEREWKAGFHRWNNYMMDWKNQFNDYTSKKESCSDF
RECORDED_ENDPOINT: pIC50
// pIC50 is dimensionless: -log10 of concentration (M)

molecule=CC1CCN(c2nccc(NCc3ccccc3)n2)CC1 measured_value=5.54

**Q:** Look up pIC50 with UniProt P81908 for this molecule: `c1ccc2c(CNc3ccnc(N4CCOCC4)n3)cccc2c1`
**A:** 4.55

**Q:** Look up pIC50 with UniProt P81908 for this molecule: `c1ccc(CNc2ccnc(N3CCSCC3)n2)cc1`
**A:** 5.64

**Q:** Look up pIC50 with UniProt P81908 for this molecule: `c1ccc2c(NCCCCCCCNc3c4c(nc5ccccc35)CCCC4)c3c(nc2c1)CCCC3`
**A:** 7.98

**Q:** Look up pIC50 with UniProt P81908 for this molecule: `CN1CCN(c2nccc(NCc3cccc4ccccc34)n2)CC1`
**A:** 5.59

**Q:** Look up pIC50 with UniProt P81908 for this molecule: `c1ccc(CNc2ccnc(N3CCCC3)n2)cc1`
**A:** 4.58

**Q:** Look up pIC50 with UniProt P81908 for this molecule: `c1ccc2c(CNc3ccnc(N4CCCC4)n3)cccc2c1`
**A:** 5.05

**Q:** Look up pIC50 with UniProt P81908 for this molecule: `CC1CCN(c2nccc(NCCc3ccccc3)n2)CC1`
**A:** 4.75

---

# MEASUREMENT_TARGET: Acetylcholinesterase (Electrophorus electricus, UniProt O42275)
Threshold 10 µM. IC50 below it: TRUE. IC50 at it or above: FALSE.

Worked examples, 5 compounds total:
molecule=c1ccc2c(CNc3ccnc(N4CCOCC4)n3)cccc2c1 assigned_class=FALSE
molecule=CC1CCN(c2nccc(NCc3ccccc3)n2)CC1 assigned_class=TRUE
molecule=CN1CCN(c2nccc(NCc3ccccc3)n2)CC1 assigned_class=TRUE
molecule=c1ccc2c(CNc3ccnc(N4CCCC4)n3)cccc2c1 assigned_class=TRUE
molecule=c1ccc2c(CNc3ccnc(N4CCSCC4)n3)cccc2c1 assigned_class=FALSE

Now examine the next entry.
**Q:** Decide: IC50 of `CN1CCN(c2nccc(NCCc3ccccc3)n2)CC1` strictly below 10 µM?
**A:** FALSE
